# Tested on: CRL-7250
# TEST METHOD NOTES: Cytotoxic Profiling of Annotated Libraries Using Quantitative High-Throughput Screening (AID 1296008); also: % is scaled to controls: 0 for no effect and ±100 for the full control effect; nearly all actives have a fitted effect of over 60% in size
# SETTINGS: Five cell lines viability, CellTiter-Glo ATP luminescence, 48-72 h; stronger effect = lower value
Inconclusive results are not listed.
EXPERIMENTAL ENDPOINT: max response (%)
Numbers only here, please. The scale is %.

Here is how some molecules turned out for max response.
{"MOLECULE": "CCCCOc1ccc(CC(=O)NO)cc1", "EXPERIMENTAL SYSTEM": "CRL-7250", "EXPERIMENTAL RESULT": -23.3}
{"MOLECULE": "Cc1cccc(Nc2ccncc2S(=O)(=O)NC(=O)NC(C)C)c1", "EXPERIMENTAL SYSTEM": "CRL-7250", "EXPERIMENTAL RESULT": -14.3}
{"MOLECULE": "CCCCS(=N)(=O)CCC(N)C(=O)O (configuration not stated)", "EXPERIMENTAL SYSTEM": "CRL-7250", "EXPERIMENTAL RESULT": -8.66}
{"MOLECULE": "NC(=O)c1cccc(N)c1", "EXPERIMENTAL SYSTEM": "CRL-7250", "EXPERIMENTAL RESULT": -10}

Any idea what max response came out for CC1=C(C(=O)O)N2C(=O)[C@@H](NC(=O)C(N)c3ccccc3)[C@H]2SC1 (some centres not stated) on CRL-7250?
-9.32

// same read-out, input: NNC(=O)c1ccncc1
4.6

# repeat for Clc1ccccc1CN1CCc2sccc2C1
-20.6

Another molecule to look at: CN1CCN(c2c(F)cc3c(=O)c(C(=O)O)cn4c3c2OCN4C)CC1
-0.174

Quick one: O=c1cc(O)c(Cl)c[nH]1
-3.23

Input CCC(=O)O[C@]1(C(=O)CCl)[C@@H](C)C[C@H]2[C@@H]3CCC4=CC(=O)C=C[C@]4(C)[C@@]3(F)[C@@H](O)C[C@@]21C
-12.4

Now give it for CCCN[C@H]1CCc2nc(N)sc2C1 too.
0.673

And the next one, CN(Cc1cc(Br)cc(Br)c1N)C1CCCCC1 ?
1.14

###

# Tested on: CP268
# TEST METHOD NOTES: qHTS profiling for inhibitors of Plasmodium falciparum proliferation (AID 504749); also: nearly all actives have a fitted effect of over 60% in size
# SETTINGS: P. falciparum in erythrocytes, SYBR Green DNA, 72 h; series mostly up to 28.7 µM
Inconclusive results are not listed. The source made the active and inactive calls. Calls follow the shape of the dose curve; as a rule, active = well fitted inhibition curve with a large enough effect; inconclusive = small, poorly fitted or top-dose-only effect; inactive = flat fitted curve, though single readings scatter.
// allowed return values: True (active), False (inactive)

Check out these entries, answers already filled in.
{"COMPOUND": "NCCCC(O)(P(=O)(O)O)P(=O)(O)O", "EXPERIMENTAL SYSTEM": "CP268", "LABEL": "False"}
{"COMPOUND": "CN(CCOc1ccc(CC2SC(=O)NC2=O)cc1)c1ccccn1 (centres undefined)", "EXPERIMENTAL SYSTEM": "CP268", "LABEL": "False"}
{"COMPOUND": "COc1cc(NS(=O)(=O)c2ccc(N)cc2)nc(OC)n1", "EXPERIMENTAL SYSTEM": "CP268", "LABEL": "False"}
{"COMPOUND": "N=C(N)c1ccc(OCCCCCOc2ccc(C(=N)N)cc2)cc1", "EXPERIMENTAL SYSTEM": "CP268", "LABEL": "True"}
{"COMPOUND": "CN1CCN(c2c(F)cc3c(=O)c(C(=O)O)cn4c3c2OCN4C)CC1", "EXPERIMENTAL SYSTEM": "CP268", "LABEL": "False"}
{"COMPOUND": "CCCc1nc(C)c2c(=O)[nH]c(-c3cc(S(=O)(=O)N4CCN(CC)CC4)ccc3OCC)nn12", "EXPERIMENTAL SYSTEM": "CP268", "LABEL": "False"}

Answer briefly: the call reported for COc1cnc(NS(=O)(=O)c2ccc(N)cc2)nc1 in this assay.
False

// next record COc1ccc(C(=O)CC(=O)c2ccc(C(C)(C)C)cc2)cc1
False

And for Cc1ncc([N+](=O)[O-])n1CCO ?
False

###

# Tested on: P93_24
# TEST METHOD NOTES: qHTS profiling for inhibitors of Plasmodium falciparum proliferation (AID 504749); also: nearly all actives have a fitted effect of over 60% in size
# SETTINGS: P. falciparum in erythrocytes, SYBR Green DNA, 72 h; series mostly up to 28.7 µM
Inconclusive results are not listed. Active and inactive are the calls of the source. Calls follow the shape of the dose curve; as a rule, active = well fitted inhibition curve with a large enough effect; inconclusive = small, poorly fitted or top-dose-only effect; inactive = flat fitted curve, though single readings scatter.
One label from this list, please: YES for active, NO for inactive

Please review the entries below; each comes with its answer.
{"MOLECULE": "CN(C)CCc1c[nH]c2ccc(CS(=O)(=O)N3CCCC3)cc12", "LABEL": "NO"}
{"MOLECULE": "COc1ccc(C(=O)CC(=O)c2ccc(C(C)(C)C)cc2)cc1", "LABEL": "NO"}
{"MOLECULE": "COc1cc(NCc2ccc3nc(N)nc(N)c3c2C)cc(OC)c1OC", "LABEL": "YES"}
{"MOLECULE": "CCCCOc1ccc(CC(=O)NO)cc1", "LABEL": "YES"}
{"MOLECULE": "C[C@]12C=CC(=O)C=C1CC[C@@H]1[C@@H]2C(=O)C[C@@]2(C)[C@H]1CC[C@]2(O)C(=O)CO", "LABEL": "NO"}

Hi, do you know how CCOCC(O)COc1ccc(NC(=O)CC[S+](C)C)cc1 (stereo not drawn) came out in this test?
NO

How about OC(Cn1cncn1)(Cn1cncn1)c1ccc(F)cc1F ?
NO

How about CC(C)(Sc1cc(C(C)(C)C)c(O)c(C(C)(C)C)c1)Sc1cc(C(C)(C)C)c(O)c(C(C)(C)C)c1 ?
NO

What do you have for NCCCC(O)(P(=O)(O)O)P(=O)(O)O ?
NO

Proceed to N=C(N)c1ccc(OCCCCCOc2ccc(C(=N)N)cc2)cc1
YES

Try this molecule next: O=C(O)c1cc(=O)[nH]c(=O)[nH]1
NO

###

# activity change, negative = inhibition annotations
# TEST METHOD NOTES: qHTS Assay for Lipid Storage Modulators (AID 1519); also: % is scaled to controls: 0 for no effect and ±100 for the full control effect
# SETTINGS: Drosophila S3 cells, BODIPY lipid droplet/cell ratio, laser cytometry; at 57.5 µM (top of the series); cells loaded with oleic acid
Inconclusive results are not listed.
Express it in %; write the number only.

Observe how each entry below is paired with its result.
{"COMPOUND": "NC(=O)c1cccc(N)c1", "activity change, negative = inhibition / %": 7.95}
{"COMPOUND": "O=C(O)c1cccnc1", "activity change, negative = inhibition / %": 5.73}
{"COMPOUND": "O=C(N[C@H](CO)[C@H](O)c1ccc([N+](=O)[O-])cc1)C(Cl)Cl", "activity change, negative = inhibition / %": 4.84}

Need activity change, negative = inhibition of CN(C)CCc1c[nH]c2ccc(CS(=O)(=O)N3CCCC3)cc12 , thanks.
5.82

One more compound: CC1=NN(c2ccccc2)C(=O)C1
5.32

# iterate: CC(=O)[C@H]1CC[C@H]2[C@@H]3CCC4=CC(=O)CC[C@]4(C)[C@H]3CC[C@]12C
1.11

Quick one: O=S(=O)(O)CCS
4.92

CNS(=O)(=O)Cc1ccc2[nH]cc(CCN(C)C)c2c1 ?
8.81

Again, but for Oc1c(Cl)cc(Cl)c2cccnc12
-20.1

Further, for CC(=O)CC(c1ccccc1)c1c(O)c2ccccc2oc1=O (stereo not given) ?
15.6

Proceed to O=S(=O)(c1cccc2cnccc12)N1CCCNCC1
-2.33

Follow-up item: NC(=O)N1c2ccccc2CC(=O)c2ccccc21
6.03

Can you check COc1cc(NS(=O)(=O)c2ccc(N)cc2)nc(OC)n1 next?
14.8

Now consider Nc1nc(=S)c2[nH]cnc2[nH]1 and answer again.
8.45

Note, next up: CN1CCCC(n2nc(Cc3ccc(Cl)cc3)c3ccccc3c2=O)CC1 (stereo not given)
4.52

###

# System: W2
# TEST METHOD NOTES: qHTS profiling for inhibitors of Plasmodium falciparum proliferation (AID 504749); also: nearly all actives have a fitted effect of over 60% in size
# SETTINGS: P. falciparum in erythrocytes, SYBR Green DNA, 72 h; series mostly up to 28.7 µM
Results filed as inconclusive are left out. Calls of active or inactive are those of the source. The call rests on the fitted dose curve; in most records, active means well fitted inhibition curve with a large enough effect; inconclusive means small, poorly fitted or top-dose-only effect; inactive means flat fitted curve, though single readings scatter.
Assign a class; possible classes are label 1 = active, label 0 = inactive

Look over these answered cases.
{"MOLECULE": "NC(=O)N1c2ccccc2CC(=O)c2ccccc21", "EXPERIMENTAL SYSTEM": "W2", "LABEL": "label 0"}
{"MOLECULE": "NC(=O)c1cccnc1", "EXPERIMENTAL SYSTEM": "W2", "LABEL": "label 0"}
{"MOLECULE": "CC[C@H](NC(C)C)[C@H](O)c1ccc(O)c2[nH]c(=O)ccc12", "EXPERIMENTAL SYSTEM": "W2", "LABEL": "label 0"}
{"MOLECULE": "Nc1ccc(S(=O)(=O)Nc2ccccn2)cc1", "EXPERIMENTAL SYSTEM": "W2", "LABEL": "label 0"}

Recorded test outcome, item COc1ccc2cc3[n+](cc2c1OC)CCc1cc2c(cc1-3)OCO2
label 1

Then what about the molecule Cc1ccnc2c1NC(=O)c1cccnc1N2C1CC1 ?
label 0

Check COc1nc(N)nc2c1ncn2[C@@H]1O[C@H](CO)[C@@H](O)[C@@H]1O too.
label 0

Can you check CCCN[C@H]1CCc2nc(N)sc2C1 next?
label 0

Same for CN1CCN(c2c(F)cc3c(=O)c(C(=O)O)cn(CCF)c3c2F)CC1
label 0

// query: CCN(C)C(=O)Oc1cccc([C@H](C)N(C)C)c1
label 0

Subsequent entry: C[C@@H](NCCCc1cccc(C(F)(F)F)c1)c1cccc2ccccc12
label 1

Record: CC(N)C12CC3CC(CC(C3)C1)C2 (stereo not drawn)
label 1

Let us now turn to O=c1cc(O)c(Cl)c[nH]1
label 0

Values compiled from PubChem BioAssay (NCATS).
